Source: paper PMC5681660

Target: human NTCP (Homo sapiens)
Sequence (Q14973 1-349): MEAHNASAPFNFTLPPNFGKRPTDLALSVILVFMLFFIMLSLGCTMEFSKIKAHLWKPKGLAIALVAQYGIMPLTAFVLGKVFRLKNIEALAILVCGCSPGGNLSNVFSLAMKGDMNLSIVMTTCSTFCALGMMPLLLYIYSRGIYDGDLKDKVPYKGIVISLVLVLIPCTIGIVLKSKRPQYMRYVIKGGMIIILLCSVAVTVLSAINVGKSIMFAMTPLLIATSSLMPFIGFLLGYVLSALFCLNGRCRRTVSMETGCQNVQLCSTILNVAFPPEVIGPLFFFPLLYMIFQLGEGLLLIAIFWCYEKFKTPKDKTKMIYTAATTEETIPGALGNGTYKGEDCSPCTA
Test: Screening taurocholate uptake assay (96-well, [14C]taurocholate, 10 µM drug)
Conditions: combined ranking from functional and binding assay B-scores
Starred links: 1 amine or outer side, 2 acyl side, 3 side chain; linkers in the order of their positions; H or OH if unused. Positions of bridges follow the written chain, without caps; N, C: chain ends. Non-standard residues stand in square brackets, D forms with d. Residues, ends and D or L forms follow the SMILES beside them. *: point of attachment. X1 = NC1=N[C@@H]([C@H](N[*:1])C(=O)[*:2])C[C@H](O)N1; ΔAla(Z-3-ureido) = NC(=O)N/C=C(\N)C(=O)O; β3hOrn = NCCC[C@H](N)CC(=O)*; Dap = NC[C@H](N)C(=O)O
Quantity measured: Ranking score
Reply with just the number.

Give its Ranking score value. Item: NCCC[C@H](N)CC(=O)N[C@H]1CNC(=O)[C@H]([C@H]2C[C@H](O)NC(N)=N2)NC(=O)/C(=C/NC(N)=O)NC(=O)[C@H](CO)NC(=O)[C@H](CO)NC1=O.O=S(=O)(O)O [Viomycin sulfate] (β3hOrn-[Dap]SS[ΔAla(Z-3-ureido)][X1]; lactam 1-C) 846.67

---

biological target: human NTCP (Homo sapiens); test: Screening fluorescent competitive Myrcludex B-FITC binding assay (96-well, 10 µM drug); conditions: Prestwick library screen, 10 µM drug; B-score of Myrcludex B-FITC binding
Structures can show the parent of a compound that is named as a salt.
Quantity measured: B-score binding assay
I'd appreciate a reply containing only the number, no unit.

Record excerpt, results attached:
Molecule	B-score binding assay
Nc1nc(O)c2[nH]nnc2n1 [Azaguanine-8]	0.825
CCCC(CCC)C(=O)O [Valproic acid]	1.515
COC(=O)Nc1nc2ccc([S+]([O-])c3ccccc3)cc2[nH]1 (stereo not shown) [Oxfendazol]	1.363
CC(C)(Oc1ccc(Cl)cc1)C(=O)O [Clofibric acid]	0.048
Cc1cc(C(C)(C)C)c(O)c(C)c1CC1=NCCN1 [Oxymetazoline hydrochloride]	2.755

Requested field: B-score binding assay. Item: CC[C@H]1OC(=O)[C@H](C)[C@@H](O[C@H]2C[C@@](C)(OC)[C@@H](O)[C@H](C)O2)[C@H](C)[C@@H](O[C@@H]2O[C@H](C)C[C@H](N(C)C)[C@H]2O)[C@](C)(O)C[C@@H](C)C(=O)[C@H](C)[C@@H](O)[C@]1(C)O [Erythromycin] 0.93

Requested field: B-score binding assay. Item: NC[C@H]1O[C@H](O[C@H]2[C@H](O[C@@H]3O[C@H](CO)[C@@H](O)[C@H]3O)[C@@H](O)[C@H](N)C[C@@H]2N)[C@H](N)[C@@H](O)[C@@H]1O.O=S(=O)(O)O [Ribostamycin sulfate salt] 1.097
